Answer each item with its documented Number Length D90.
Assay: Particle size distribution of ORZY-05 by static automated imaging (Morphologi 4)
Type: physicochemical
Settings: ORZY-05 particles
Note: unit μm is implicit; provide only the numeric part.

Just so you know, measured Number Length D90 for O=C(O)CC(O)(CC(=O)O)C(=O)O.[O-][n+]1cccc(/C(Cl)=N/OC[C@H](O)CN2CCCCC2)c1 [17-002, arimoclomol citrate] came out at 13.90

Just so you know, measured Number Length D90 for O=C(O)CC(O)(CC(=O)O)C(=O)O.[O-][n+]1cccc(/C(Cl)=N/OC[C@H](O)CN2CCCCC2)c1 [18-002, arimoclomol citrate] came out at 16.60

Just so you know, measured Number Length D90 for O=C(O)CC(O)(CC(=O)O)C(=O)O.[O-][n+]1cccc(/C(Cl)=N/OC[C@H](O)CN2CCCCC2)c1 [18-003, arimoclomol citrate] came out at 56.10

---

Assay: Particle size distribution of ORZY-05 by static automated imaging (Morphologi 4)
Assay type: physicochemical
Settings: ORZY-05 particles
Please mark label 1 if the recorded Number CE Diameter D10 is equal to or greater than 2 μm, and label 0 if it falls below.

# input Does O=C(O)CC(O)(CC(=O)O)C(=O)O.[O-][n+]1cccc(/C(Cl)=N/OC[C@H](O)CN2CCCCC2)c1 [compound 1001, arimoclomol citrate] have a reported Number CE Diameter D10 of at least 2 μm?
# output label 1

# input Does O=C(O)CC(O)(CC(=O)O)C(=O)O.[O-][n+]1cccc(/C(Cl)=N/OC[C@H](O)CN2CCCCC2)c1 [18-002, arimoclomol citrate] have a reported Number CE Diameter D10 of at least 2 μm?
# output label 0

# input Does O=C(O)CC(O)(CC(=O)O)C(=O)O.[O-][n+]1cccc(/C(Cl)=N/OC[C@H](O)CN2CCCCC2)c1 [compound 1003, arimoclomol citrate] have a reported Number CE Diameter D10 of at least 2 μm?
# output label 0

# input Does O=C(O)CC(O)(CC(=O)O)C(=O)O.[O-][n+]1cccc(/C(Cl)=N/OC[C@H](O)CN2CCCCC2)c1 [17-004, arimoclomol citrate] have a reported Number CE Diameter D10 of at least 2 μm?
# output label 0

# input Does O=C(O)CC(O)(CC(=O)O)C(=O)O.[O-][n+]1cccc(/C(Cl)=N/OC[C@H](O)CN2CCCCC2)c1 [compound 1002, arimoclomol citrate] have a reported Number CE Diameter D10 of at least 2 μm?
# output label 1

# input Does O=C(O)CC(O)(CC(=O)O)C(=O)O.[O-][n+]1cccc(/C(Cl)=N/OC[C@H](O)CN2CCCCC2)c1 [18-004, arimoclomol citrate] have a reported Number CE Diameter D10 of at least 2 μm?
# output label 1

---

Experiment: Particle size distribution of ORZY-05 by static automated imaging (Morphologi 4)
Format: physicochemical
Conditions: ORZY-05 particles
measurementLabel: Volume CE Diameter D50

Just so you know, measured Volume CE Diameter D50 for O=C(O)CC(O)(CC(=O)O)C(=O)O.[O-][n+]1cccc(/C(Cl)=N/OC[C@H](O)CN2CCCCC2)c1 [17-002, arimoclomol citrate] came out at 14.00 μm

Just so you know, measured Volume CE Diameter D50 for O=C(O)CC(O)(CC(=O)O)C(=O)O.[O-][n+]1cccc(/C(Cl)=N/OC[C@H](O)CN2CCCCC2)c1 [18-002, arimoclomol citrate] came out at 22.70 μm

Just so you know, measured Volume CE Diameter D50 for O=C(O)CC(O)(CC(=O)O)C(=O)O.[O-][n+]1cccc(/C(Cl)=N/OC[C@H](O)CN2CCCCC2)c1 [compound 1002, arimoclomol citrate] came out at 32.12 μm

Just so you know, measured Volume CE Diameter D50 for O=C(O)CC(O)(CC(=O)O)C(=O)O.[O-][n+]1cccc(/C(Cl)=N/OC[C@H](O)CN2CCCCC2)c1 [18-003, arimoclomol citrate] came out at 37.60 μm

Just so you know, measured Volume CE Diameter D50 for O=C(O)CC(O)(CC(=O)O)C(=O)O.[O-][n+]1cccc(/C(Cl)=N/OC[C@H](O)CN2CCCCC2)c1 [18-001, arimoclomol citrate] came out at 26.40 μm

Just so you know, measured Volume CE Diameter D50 for O=C(O)CC(O)(CC(=O)O)C(=O)O.[O-][n+]1cccc(/C(Cl)=N/OC[C@H](O)CN2CCCCC2)c1 [17-004, arimoclomol citrate] came out at 38.90 μm

Just so you know, measured Volume CE Diameter D50 for O=C(O)CC(O)(CC(=O)O)C(=O)O.[O-][n+]1cccc(/C(Cl)=N/OC[C@H](O)CN2CCCCC2)c1 [compound 1003, arimoclomol citrate] came out at 20.58 μm

Just so you know, measured Volume CE Diameter D50 for O=C(O)CC(O)(CC(=O)O)C(=O)O.[O-][n+]1cccc(/C(Cl)=N/OC[C@H](O)CN2CCCCC2)c1 [compound 1001, arimoclomol citrate] came out at 25.95 μm

Just so you know, measured Volume CE Diameter D50 for O=C(O)CC(O)(CC(=O)O)C(=O)O.[O-][n+]1cccc(/C(Cl)=N/OC[C@H](O)CN2CCCCC2)c1 [compound 1004, arimoclomol citrate] came out at 25.00 μm
